ASSAY_TARGET: recombinant human GST-SYK (Homo sapiens, UniProt P43405)
ASSAY_DETAILS: Homogeneous Time-Resolved Fluorescence (HTRF) assay for the recombinant human Syk enzyme
ASSAY_SETUP: recombinant human GST-SYK 5 pM, ATP 25 μM, read-out: rhSyk
pIC50: −log10 of the molar value.
Label rule, in plain words: pIC50 of 6 and up is fulfilled, under 6 is not fulfilled.

Test whether the molecule Cc1cc(Nc2ncn(C3CCC3)n2)cc(-c2cnc(C3(O)CCC3)s2)c1 [Example 2.17] records pIC50 of 6 or higher.
fulfilled

Test whether the molecule CCn1cnc(Nc2cc(C)cc(-c3cnc([C@]4(O)CC[C@@H](C(N)=O)CC4)s3)c2)n1 [Example 2.3] records pIC50 of 6 or higher.
fulfilled

Test whether the molecule Cc1cc(Nc2ncnn2C2CCC2)cc(-c2cnc(C3(O)CCC3)s2)c1 [Example 2.18] records pIC50 of 6 or higher.
not fulfilled

Test whether the molecule Cc1cc(Nc2ncnn2C2CCC2)cc(-c2cnc([C@]3(O)CC[C@@H](C(=O)O)CC3)s2)c1 [Example 2.21] records pIC50 of 6 or higher.
not fulfilled

Test whether the molecule Cc1cc(Nc2cc(C3CC3)[nH]n2)cc(-c2cnc(C3(O)CCC3)s2)c1 [Example 2.6] records pIC50 of 6 or higher.
fulfilled

Test whether the molecule CCn1cnc(Nc2cc(C)cc(-c3cnc(C4(O)CCC(C(=O)O)CC4)s3)c2)n1 (stereo not shown) [Example 2.2] records pIC50 of 6 or higher.
fulfilled

Test whether the molecule Cc1cc(Nc2ncn(C)n2)cc(-c2cnc(C3(O)CCC(C(=O)O)CC3)s2)c1 (stereo not shown) [Example 1.2] records pIC50 of 6 or higher.
fulfilled
